- targetSystem: Sialic acid-binding Ig-like lectin 9 (Homo sapiens) (UniProt Q9Y336)
- Sequence (Q9Y336 whole entry): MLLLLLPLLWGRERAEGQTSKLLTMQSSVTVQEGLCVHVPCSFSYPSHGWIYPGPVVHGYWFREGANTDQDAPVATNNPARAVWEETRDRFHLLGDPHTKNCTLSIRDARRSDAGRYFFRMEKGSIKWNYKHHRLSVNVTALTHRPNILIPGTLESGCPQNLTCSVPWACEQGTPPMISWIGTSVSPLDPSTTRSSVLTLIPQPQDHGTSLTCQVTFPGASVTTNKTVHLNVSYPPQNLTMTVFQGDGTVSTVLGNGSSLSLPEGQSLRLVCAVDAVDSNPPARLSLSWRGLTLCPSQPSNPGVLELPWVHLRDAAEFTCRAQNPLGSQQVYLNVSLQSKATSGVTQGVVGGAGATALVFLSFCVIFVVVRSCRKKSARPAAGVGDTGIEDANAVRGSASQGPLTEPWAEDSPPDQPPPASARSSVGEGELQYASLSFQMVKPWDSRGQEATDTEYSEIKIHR
- experimentDescription: Hs-Siglec9 ALPHAscreen SOP 20170721
- Set-up: scale not given: direction of the effect not stated beside the values
- cond: 10 µM
Entries and their Percent Effect values follow.
reportedEndpoint: Percent Effect (%)

- compound: "CNc1nc(CNC(=O)Nc2ccccc2SC)cs1"
  targetSystem: "Sialic acid-binding Ig-like lectin 9 (Homo sapiens) (UniProt Q9Y336)"
  reportedEndpoint: "Percent Effect"
  endpointValue: 0.229
- compound: "COc1ccc(CN2C[C@@H](OCc3csc(C)n3)[C@H]3COC[C@H]32)cc1"
  targetSystem: "Sialic acid-binding Ig-like lectin 9 (Homo sapiens) (UniProt Q9Y336)"
  reportedEndpoint: "Percent Effect"
  endpointValue: 0.865
- compound: "O=C(NCC1CC1)[C@@H]1CCO[C@@H]2CCN(Cc3ccco3)C[C@H]21"
  targetSystem: "Sialic acid-binding Ig-like lectin 9 (Homo sapiens) (UniProt Q9Y336)"
  reportedEndpoint: "Percent Effect"
  endpointValue: -4.47
- compound: "Fc1cccc(CN2CCC(c3n[nH]c4ncccc34)CC2)c1F"
  targetSystem: "Sialic acid-binding Ig-like lectin 9 (Homo sapiens) (UniProt Q9Y336)"
  reportedEndpoint: "Percent Effect"
  endpointValue: 6.41
- compound: "CCc1ncc(C(=O)NCCNC(=O)Cc2ccc(F)cc2)s1"
  targetSystem: "Sialic acid-binding Ig-like lectin 9 (Homo sapiens) (UniProt Q9Y336)"
  reportedEndpoint: "Percent Effect"
  endpointValue: 11.1
- compound: "CC(=O)N(C)CC(=O)Nc1cccc(N2CCN(CC3CC3)CC2)c1"
  targetSystem: "Sialic acid-binding Ig-like lectin 9 (Homo sapiens) (UniProt Q9Y336)"
  reportedEndpoint: "Percent Effect"
  endpointValue: 0.217
- compound: "COCC1CCN(C(=O)c2cccc(S(=O)(=O)NCC3(C)COC3)c2)C1 (stereo not drawn)"
  targetSystem: "Sialic acid-binding Ig-like lectin 9 (Homo sapiens) (UniProt Q9Y336)"
  reportedEndpoint: "Percent Effect"
  endpointValue: 24.4
- compound: "Cn1ccnc1-c1ccccc1C(=O)N1CCc2c(nc(N)[nH]c2=O)C1"
  targetSystem: "Sialic acid-binding Ig-like lectin 9 (Homo sapiens) (UniProt Q9Y336)"
  reportedEndpoint: "Percent Effect"
  endpointValue: 4.47
- compound: "Cc1cc(C)cc(OCCC(=O)N2CCOCC2c2ncon2)c1 (stereo not drawn)"
  targetSystem: "Sialic acid-binding Ig-like lectin 9 (Homo sapiens) (UniProt Q9Y336)"
  reportedEndpoint: "Percent Effect"
  endpointValue: 6.93
- compound: "Cc1ccc(C)c(-c2csc(N)c2C#N)c1"
  targetSystem: "Sialic acid-binding Ig-like lectin 9 (Homo sapiens) (UniProt Q9Y336)"
  reportedEndpoint: "Percent Effect"
  endpointValue: 7.24
- compound: "CN1CCN(Cc2cscn2)CC(C(=O)N(C)C)C1 (stereo not drawn)"
  targetSystem: "Sialic acid-binding Ig-like lectin 9 (Homo sapiens) (UniProt Q9Y336)"
  reportedEndpoint: "Percent Effect"
  endpointValue: -0.543
- compound: "O=C(CCC1CCCC1)N1CCC(c2ncc3c(n2)CCNC3)CC1"
  targetSystem: "Sialic acid-binding Ig-like lectin 9 (Homo sapiens) (UniProt Q9Y336)"
  reportedEndpoint: "Percent Effect"
  endpointValue: 5.51
- compound: "Cc1nn(C)c(C)c1C1COCCN1C(=O)c1n[nH]c2ccccc12 (stereo not drawn)"
  targetSystem: "Sialic acid-binding Ig-like lectin 9 (Homo sapiens) (UniProt Q9Y336)"
  reportedEndpoint: "Percent Effect"
  endpointValue: -4.32
- compound: "Clc1ccc2cccnc2c1CN1CCCC1Cn1cncn1 (stereo not drawn)"
  targetSystem: "Sialic acid-binding Ig-like lectin 9 (Homo sapiens) (UniProt Q9Y336)"
  reportedEndpoint: "Percent Effect"
  endpointValue: -0.559
- compound: "CCCC(NC(=O)c1cc(C)n(C2CC2)c1C)c1nnn[nH]1 (stereo not drawn)"
  targetSystem: "Sialic acid-binding Ig-like lectin 9 (Homo sapiens) (UniProt Q9Y336)"
  reportedEndpoint: "Percent Effect"
  endpointValue: 18.2
- compound: "CN(C)CC(=O)N1CCOCC2(C1)CN(c1ccccc1)C(=O)CO2 (stereo not drawn)"
  targetSystem: "Sialic acid-binding Ig-like lectin 9 (Homo sapiens) (UniProt Q9Y336)"
  reportedEndpoint: "Percent Effect"
  endpointValue: -1.53
- compound: "CC1CCc2nc(O)c(C(=O)NCc3cccc(F)c3)cc2C1 (stereo not drawn)"
  targetSystem: "Sialic acid-binding Ig-like lectin 9 (Homo sapiens) (UniProt Q9Y336)"
  reportedEndpoint: "Percent Effect"
  endpointValue: 0.168
- compound: "Cc1nn(C)c(Cl)c1C1CCCN1C(=O)c1cc(Cl)c[nH]1 (stereo not drawn)"
  targetSystem: "Sialic acid-binding Ig-like lectin 9 (Homo sapiens) (UniProt Q9Y336)"
  reportedEndpoint: "Percent Effect"
  endpointValue: 9.97
- compound: "Cc1oc(C)c(C(=O)NCc2cccc(NC(=O)CN(C)C)c2)c1C"
  targetSystem: "Sialic acid-binding Ig-like lectin 9 (Homo sapiens) (UniProt Q9Y336)"
  reportedEndpoint: "Percent Effect"
  endpointValue: -0.734
- compound: "CC(C)CCN1CN=C(NS(=O)(=O)c2ccc(F)cc2)NC1"
  targetSystem: "Sialic acid-binding Ig-like lectin 9 (Homo sapiens) (UniProt Q9Y336)"
  reportedEndpoint: "Percent Effect"
  endpointValue: 1.92
- compound: "CN(C)c1cc2c(nn1)CCN(C(=O)C1CCc3ccccc31)C2 (stereo not drawn)"
  targetSystem: "Sialic acid-binding Ig-like lectin 9 (Homo sapiens) (UniProt Q9Y336)"
  reportedEndpoint: "Percent Effect"
  endpointValue: 3.81
- compound: "Cc1nccn1C1CCCN(C(=O)c2cc3ccccc3[nH]2)C1 (stereo not drawn)"
  targetSystem: "Sialic acid-binding Ig-like lectin 9 (Homo sapiens) (UniProt Q9Y336)"
  reportedEndpoint: "Percent Effect"
  endpointValue: 1.72
- compound: "CCOCCn1nc(C)cc1C(=O)N1CCOCC(CO)C1 (stereo not drawn)"
  targetSystem: "Sialic acid-binding Ig-like lectin 9 (Homo sapiens) (UniProt Q9Y336)"
  reportedEndpoint: "Percent Effect"
  endpointValue: 24.4
- compound: "CCc1nc(C2CCCN(C(=O)c3ccc4[nH]nnc4c3)C2)no1 (stereo not drawn)"
  targetSystem: "Sialic acid-binding Ig-like lectin 9 (Homo sapiens) (UniProt Q9Y336)"
  reportedEndpoint: "Percent Effect"
  endpointValue: 0.134
- compound: "Cc1cc(-c2cnc(NC3CC3)nc2-c2ccc(C)o2)on1"
  targetSystem: "Sialic acid-binding Ig-like lectin 9 (Homo sapiens) (UniProt Q9Y336)"
  reportedEndpoint: "Percent Effect"
  endpointValue: 7.93
- compound: "Cc1nn(C)c(Cl)c1CNCc1cccnc1N1CCOCC1"
  targetSystem: "Sialic acid-binding Ig-like lectin 9 (Homo sapiens) (UniProt Q9Y336)"
  reportedEndpoint: "Percent Effect"
  endpointValue: -3.82
- compound: "CCn1cc(C(=O)NC2CCN(S(C)(=O)=O)CC2)c2ccccc21"
  targetSystem: "Sialic acid-binding Ig-like lectin 9 (Homo sapiens) (UniProt Q9Y336)"
  reportedEndpoint: "Percent Effect"
  endpointValue: 22.3
- compound: "CCc1ncnc2c1CCN(C(=O)Cc1ccccn1)CC2"
  targetSystem: "Sialic acid-binding Ig-like lectin 9 (Homo sapiens) (UniProt Q9Y336)"
  reportedEndpoint: "Percent Effect"
  endpointValue: 1.52
- compound: "CCc1nc(C)c(C(=O)NCCNc2ncccn2)s1"
  targetSystem: "Sialic acid-binding Ig-like lectin 9 (Homo sapiens) (UniProt Q9Y336)"
  reportedEndpoint: "Percent Effect"
  endpointValue: -4.05
- compound: "COCCNC(=O)NCCc1ccn(-c2ccccc2)n1"
  targetSystem: "Sialic acid-binding Ig-like lectin 9 (Homo sapiens) (UniProt Q9Y336)"
  reportedEndpoint: "Percent Effect"
  endpointValue: 4.04
- compound: "COc1ccc([C@@H]2CN(C(=O)CCC(F)(F)F)C[C@H]2NC(C)=O)cc1"
  targetSystem: "Sialic acid-binding Ig-like lectin 9 (Homo sapiens) (UniProt Q9Y336)"
  reportedEndpoint: "Percent Effect"
  endpointValue: -0.127
- compound: "Cc1noc(C)c1CNc1cc(N2CCCC2CO)ncn1 (stereo not drawn)"
  targetSystem: "Sialic acid-binding Ig-like lectin 9 (Homo sapiens) (UniProt Q9Y336)"
  reportedEndpoint: "Percent Effect"
  endpointValue: 4.54
- compound: "CN(C)S(=O)(=O)N1CCC(Oc2ccccn2)CC1"
  targetSystem: "Sialic acid-binding Ig-like lectin 9 (Homo sapiens) (UniProt Q9Y336)"
  reportedEndpoint: "Percent Effect"
  endpointValue: -0.581
- compound: "Cc1nn(C)c(N2CCOCC2)c1CNC(C)c1cccnc1 (stereo not drawn)"
  targetSystem: "Sialic acid-binding Ig-like lectin 9 (Homo sapiens) (UniProt Q9Y336)"
  reportedEndpoint: "Percent Effect"
  endpointValue: 21.7
- compound: "COCCn1nc(C(=O)N(C)Cc2cnn(C)c2)ccc1=O"
  targetSystem: "Sialic acid-binding Ig-like lectin 9 (Homo sapiens) (UniProt Q9Y336)"
  reportedEndpoint: "Percent Effect"
  endpointValue: -8.02
- compound: "O=c1[nH]c(CN(Cc2ccco2)C2CCCC2)nc2ccccc12"
  targetSystem: "Sialic acid-binding Ig-like lectin 9 (Homo sapiens) (UniProt Q9Y336)"
  reportedEndpoint: "Percent Effect"
  endpointValue: 1.72
- compound: "CC(=O)N1CCCN(C(=O)c2csc(-c3ccc(C)cc3C)n2)CC1"
  targetSystem: "Sialic acid-binding Ig-like lectin 9 (Homo sapiens) (UniProt Q9Y336)"
  reportedEndpoint: "Percent Effect"
  endpointValue: 14.8
- compound: "CNc1cc(N2CCCC2CNCc2c[nH]nc2C(C)(C)C)ncn1 (stereo not drawn)"
  targetSystem: "Sialic acid-binding Ig-like lectin 9 (Homo sapiens) (UniProt Q9Y336)"
  reportedEndpoint: "Percent Effect"
  endpointValue: -4.25
- compound: "Cc1nc(C2CCCN2C(=O)CNS(C)(=O)=O)no1 (stereo not drawn)"
  targetSystem: "Sialic acid-binding Ig-like lectin 9 (Homo sapiens) (UniProt Q9Y336)"
  reportedEndpoint: "Percent Effect"
  endpointValue: -1.69
- compound: "CO[C@H]1CO[C@@]2(CCCN(C(=O)C3=CCCCC3)C2)C1"
  targetSystem: "Sialic acid-binding Ig-like lectin 9 (Homo sapiens) (UniProt Q9Y336)"
  reportedEndpoint: "Percent Effect"
  endpointValue: -1.82
- compound: "Cc1cc(C)c(CNC(=O)NCC(c2ccccc2)N(C)C)c(=O)[nH]1 (stereo not drawn)"
  targetSystem: "Sialic acid-binding Ig-like lectin 9 (Homo sapiens) (UniProt Q9Y336)"
  reportedEndpoint: "Percent Effect"
  endpointValue: 13.4
- compound: "O=C(CCc1nc2cccnc2[nH]1)Nc1cccnc1"
  targetSystem: "Sialic acid-binding Ig-like lectin 9 (Homo sapiens) (UniProt Q9Y336)"
  reportedEndpoint: "Percent Effect"
  endpointValue: 1.96
- compound: "Cc1ccc2c(ccn2CCC(=O)O)c1"
  targetSystem: "Sialic acid-binding Ig-like lectin 9 (Homo sapiens) (UniProt Q9Y336)"
  reportedEndpoint: "Percent Effect"
  endpointValue: -0.473
- compound: "Cc1csc(C2CCCCN2C(=O)CN(C)Cc2ccccc2)n1 (stereo not drawn)"
  targetSystem: "Sialic acid-binding Ig-like lectin 9 (Homo sapiens) (UniProt Q9Y336)"
  reportedEndpoint: "Percent Effect"
  endpointValue: 7.48
- compound: "COc1nccc(N2CCN(Cc3ccc(C)cc3)C(=O)C2)c1C#N"
  targetSystem: "Sialic acid-binding Ig-like lectin 9 (Homo sapiens) (UniProt Q9Y336)"
  reportedEndpoint: "Percent Effect"
  endpointValue: 5.78
- compound: "COc1cc(N2C[C@@H]3COC[C@]3(COc3cccnc3)C2)ncn1"
  targetSystem: "Sialic acid-binding Ig-like lectin 9 (Homo sapiens) (UniProt Q9Y336)"
  reportedEndpoint: "Percent Effect"
  endpointValue: -8.65
- compound: "Cc1n[nH]c(C)c1-c1cnc(CC2CCN(C)C2)cn1 (stereo not drawn)"
  targetSystem: "Sialic acid-binding Ig-like lectin 9 (Homo sapiens) (UniProt Q9Y336)"
  reportedEndpoint: "Percent Effect"
  endpointValue: 4.94
- compound: "Cc1nc(C)n(CC2CCCN(Cc3nc(C)c(C)o3)C2)n1 (stereo not drawn)"
  targetSystem: "Sialic acid-binding Ig-like lectin 9 (Homo sapiens) (UniProt Q9Y336)"
  reportedEndpoint: "Percent Effect"
  endpointValue: -7.46

Attribution: ChEMBL document CHEMBL3988442
